- System: PfHDP1 homeodomain (GST-tagged)
- assay summary: gcPBM binding intensity (ln(normalized median fluorescence intensity)); higher = stronger DNA binding
Over roughly 25,000 sequences, “ln(normalized median fluorescence intensity)” has its median near 6.7; the highest 2% begin near 10. The sample holds the highest values, similar sequences and a random draw of the others, so the mix is not that of the screen.
attribute measured: gcPBM binding intensity (ln)

[
  {
    "residue codes": "CATTTGCACCCGCACACACACATAAAAAGAAAAATA [CACACA_site4350]",
    "attribute measured": "gcPBM binding intensity (ln)",
    "value observed": 10.7
  },
  {
    "residue codes": "TATATATATATAACAACACACACAGATCATAAAACT [CACACA_site8670]",
    "attribute measured": "gcPBM binding intensity (ln)",
    "value observed": 8.9
  },
  {
    "residue codes": "ATCATTTGCATACGCACACACACATAAAAAGAAAAA [CACACA_site355]",
    "attribute measured": "gcPBM binding intensity (ln)",
    "value observed": 8.44
  },
  {
    "residue codes": "ATCATTTGCTCACGCACACACACATAAAAAGAAAAA [CACACA_site4349]",
    "attribute measured": "gcPBM binding intensity (ln)",
    "value observed": 9.55
  },
  {
    "residue codes": "ATAATAATAATAAAAAGTACATTTAATTATATAGAA [XGTACX_site7742]",
    "attribute measured": "gcPBM binding intensity (ln)",
    "value observed": 6.51
  },
  {
    "residue codes": "CTATAATATTAGTGCACACACAAAAATGTACTAAAC [CACACA_site6442]",
    "attribute measured": "gcPBM binding intensity (ln)",
    "value observed": 10.6
  },
  {
    "residue codes": "GTATATTAATAAACATGTACACAATTTATTTATATT [XGTACX_site1012]",
    "attribute measured": "gcPBM binding intensity (ln)",
    "value observed": 6.6
  },
  {
    "residue codes": "ATATATATATTAATTACACACAAAAAAAAAAAAAAA [CACACA_site1165]",
    "attribute measured": "gcPBM binding intensity (ln)",
    "value observed": 7.49
  },
  {
    "residue codes": "ATATATATTAATTTTGTGCACAAATGGAAATGTTTG [GTGCAC_site9971]",
    "attribute measured": "gcPBM binding intensity (ln)",
    "value observed": 10.9
  },
  {
    "residue codes": "GTGCAAAATATTTTTACACACAAATTTTTACAACAG [CACACA_site3357]",
    "attribute measured": "gcPBM binding intensity (ln)",
    "value observed": 8.07
  },
  {
    "residue codes": "AAATTTATATATAGTTGTACAAAAATATGTTTCGTA [XGTACX_site4801]",
    "attribute measured": "gcPBM binding intensity (ln)",
    "value observed": 6.62
  },
  {
    "residue codes": "GATAAATGTATATATGCATGCACATATATTTATACA [TGCATGCA_site748]",
    "attribute measured": "gcPBM binding intensity (ln)",
    "value observed": 8.96
  },
  {
    "residue codes": "TTTTTCTTCTGCATTATGCACACTATAATTCGTTAA [CACACA_site2837]",
    "attribute measured": "gcPBM binding intensity (ln)",
    "value observed": 10.2
  },
  {
    "residue codes": "ATATACACATATACATGTACAAATATATATACACAT [XGTACX_site2986]",
    "attribute measured": "gcPBM binding intensity (ln)",
    "value observed": 6.9
  },
  {
    "residue codes": "ATATATTTATTTTGTGCACACAACGCAAACCTTTTA [CACACA_site3508]",
    "attribute measured": "gcPBM binding intensity (ln)",
    "value observed": 11.3
  },
  {
    "residue codes": "TTAACATCAAAATATGCACACAAACAATTAGCGGTA [CACACA_site8801]",
    "attribute measured": "gcPBM binding intensity (ln)",
    "value observed": 9.76
  },
  {
    "residue codes": "AAAATGTGCATATTTGCACACTTCAATATATATATA [CACACA_site1791]",
    "attribute measured": "gcPBM binding intensity (ln)",
    "value observed": 11.2
  },
  {
    "residue codes": "TTCGTTCTTTTATGCACACTCAACATATAAATTAAA [CACACA_site1209]",
    "attribute measured": "gcPBM binding intensity (ln)",
    "value observed": 10.1
  },
  {
    "residue codes": "TTTATATTTTATAAATTATTCATAAATATATTTGTA [TGCATGCA_negctrl_site175]",
    "attribute measured": "gcPBM binding intensity (ln)",
    "value observed": 6.34
  },
  {
    "residue codes": "ATATTTATTTATATTACACACATGTGCAATTAAACT [CACACA_site6928]",
    "attribute measured": "gcPBM binding intensity (ln)",
    "value observed": 10.7
  },
  {
    "residue codes": "ATATGTAAAATGAAGATACATACATACATACATACA [CACACA_negctrl_site715]",
    "attribute measured": "gcPBM binding intensity (ln)",
    "value observed": 7.53
  },
  {
    "residue codes": "TTAATAATAAAAAGGAGTACACTAATATACTATAAA [XGTACX_site2346]",
    "attribute measured": "gcPBM binding intensity (ln)",
    "value observed": 6.35
  },
  {
    "residue codes": "TATAAACCTTTTTGCACGCACACAAAAAAAAAATAA [CACACA_site168]",
    "attribute measured": "gcPBM binding intensity (ln)",
    "value observed": 9.61
  },
  {
    "residue codes": "CATTTGCACACGCACACACACATAAAAAGAAAAATA [CACACA_site6297]",
    "attribute measured": "gcPBM binding intensity (ln)",
    "value observed": 10.8
  },
  {
    "residue codes": "TAGTAAAAACCAAAATGTACATGTGCCATTTTTTTA [XGTACX_site2630]",
    "attribute measured": "gcPBM binding intensity (ln)",
    "value observed": 6.15
  },
  {
    "residue codes": "AACTTAAAAAATAAATGTACATAAATATAAACATAT [XGTACX_site2987]",
    "attribute measured": "gcPBM binding intensity (ln)",
    "value observed": 6.59
  },
  {
    "residue codes": "ATTTATATATCGCCCACACACATGTGATTATTTATA [CACACA_site6905]",
    "attribute measured": "gcPBM binding intensity (ln)",
    "value observed": 7
  },
  {
    "residue codes": "AAAATTAAAATATATACACACATATATATATTAAAT [CACACA_site4419]",
    "attribute measured": "gcPBM binding intensity (ln)",
    "value observed": 6.25
  },
  {
    "residue codes": "GAAAGAAATAAAGGTGGTACATAAATAAAAACTAAG [XGTACX_site4826]",
    "attribute measured": "gcPBM binding intensity (ln)",
    "value observed": 6.97
  },
  {
    "residue codes": "TATATATATATGTGCACACATAATAAAAAAAAAAAT [CACACA_site3831]",
    "attribute measured": "gcPBM binding intensity (ln)",
    "value observed": 9.99
  },
  {
    "residue codes": "TTTTGTTATAAATAATGTACATATTTATTTAAAATT [XGTACX_site6610]",
    "attribute measured": "gcPBM binding intensity (ln)",
    "value observed": 6.25
  },
  {
    "residue codes": "TGTATATGGTTTGTGCAAAAATTTATTAATGTGTAA [TGCATGCA_negctrl_site374]",
    "attribute measured": "gcPBM binding intensity (ln)",
    "value observed": 10.1
  },
  {
    "residue codes": "ATATATATATATATTACACACATGTGCAATTAAAAT [CACACA_site1778]",
    "attribute measured": "gcPBM binding intensity (ln)",
    "value observed": 10.7
  },
  {
    "residue codes": "GAAAATAGAAAAAGCACACATATATTTTGGAATGTA [CACACA_site551]",
    "attribute measured": "gcPBM binding intensity (ln)",
    "value observed": 6.5
  },
  {
    "residue codes": "AAAATTAGATTATGCACACACACTTAAAAATAATAA [CACACA_site1975]",
    "attribute measured": "gcPBM binding intensity (ln)",
    "value observed": 10.1
  },
  {
    "residue codes": "TATTATATTATACATACACACCCATATAATATGTTT [CACACA_site8191]",
    "attribute measured": "gcPBM binding intensity (ln)",
    "value observed": 6.85
  },
  {
    "residue codes": "TGAATAAATATATATACACACCCATATATATATATA [CACACA_site8833]",
    "attribute measured": "gcPBM binding intensity (ln)",
    "value observed": 9.21
  },
  {
    "residue codes": "TCAAAAAATATATTTGCACACTCAAAAAAAAAAAAA [CACACA_site860]",
    "attribute measured": "gcPBM binding intensity (ln)",
    "value observed": 10.2
  }
]
